% inhibition apPOL 180': recorded values
Target: UniProtKB Q8ILY1
Sequence (Q8ILY1 entry or part of it): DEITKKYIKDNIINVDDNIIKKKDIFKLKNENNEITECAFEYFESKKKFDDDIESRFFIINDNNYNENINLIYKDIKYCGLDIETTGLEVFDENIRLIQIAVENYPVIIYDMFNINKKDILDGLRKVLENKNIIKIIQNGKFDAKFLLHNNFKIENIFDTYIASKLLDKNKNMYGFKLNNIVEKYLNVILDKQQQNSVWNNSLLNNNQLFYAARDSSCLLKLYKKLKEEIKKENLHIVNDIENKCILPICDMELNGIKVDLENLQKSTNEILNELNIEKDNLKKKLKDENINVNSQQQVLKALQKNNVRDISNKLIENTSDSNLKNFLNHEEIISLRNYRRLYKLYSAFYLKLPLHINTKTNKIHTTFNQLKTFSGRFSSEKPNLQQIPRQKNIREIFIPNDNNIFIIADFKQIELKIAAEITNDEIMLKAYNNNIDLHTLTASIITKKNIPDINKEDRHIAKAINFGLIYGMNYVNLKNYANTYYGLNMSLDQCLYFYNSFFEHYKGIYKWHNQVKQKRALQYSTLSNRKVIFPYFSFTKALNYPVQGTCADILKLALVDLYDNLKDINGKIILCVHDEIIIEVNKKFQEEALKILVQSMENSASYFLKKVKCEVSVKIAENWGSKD
Assay: Fluorescence-based high-throughput DNA polymerase assay (molecular beacon), primary screen and dose-response;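 note: test concentration in µM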
Assay type: biochemical
Settings: DRC-2; 180'; concentration 10
metric.name: % inhibition apPOL 180' (%)

>>> print(df.to_string())
                                   compound     target_entity  val
0  COc1cccc(C(=O)N2CCc3c(nc4cc(-c5ccccc5)[nH]n4c3=O)C2)c1OC [Molecule 22]  UniProtKB Q8ILY1   34
1  CCOc1ccc(/C=C2\N=C(c3cc([N+](=O)[O-])cc([N+](=O)[O-])c3)OC2=O)cc1 [Molecule 97]  UniProtKB Q8ILY1   28
2  COc1ccc2c(c1)C(c1ccccc1OC)CC(=O)O2 (stereo not shown) [Molecule 38, COc1ccc2c(c1)C(CC(=O)O2)c1ccccc1OC]  UniProtKB Q8ILY1   20
3  C=CC1=C(C)c2cc3[nH]c(cc4nc(cc5[nH]c(cc1n2)c(C)c5CCC(=O)O)C(CCC(=O)O)=C4C)c(C)c3C=C [Molecule 91]  UniProtKB Q8ILY1   76

FYI, the data here is from paper PMC9090415.
